Biological target: T1, Recombinant human MMR (R&D systems) (human, UniProt P22897 19-1383)
T1 construct: Antigen of the PE-ELISA and the SPR; also called hMMR; recombinant hMMR
T1 sequence: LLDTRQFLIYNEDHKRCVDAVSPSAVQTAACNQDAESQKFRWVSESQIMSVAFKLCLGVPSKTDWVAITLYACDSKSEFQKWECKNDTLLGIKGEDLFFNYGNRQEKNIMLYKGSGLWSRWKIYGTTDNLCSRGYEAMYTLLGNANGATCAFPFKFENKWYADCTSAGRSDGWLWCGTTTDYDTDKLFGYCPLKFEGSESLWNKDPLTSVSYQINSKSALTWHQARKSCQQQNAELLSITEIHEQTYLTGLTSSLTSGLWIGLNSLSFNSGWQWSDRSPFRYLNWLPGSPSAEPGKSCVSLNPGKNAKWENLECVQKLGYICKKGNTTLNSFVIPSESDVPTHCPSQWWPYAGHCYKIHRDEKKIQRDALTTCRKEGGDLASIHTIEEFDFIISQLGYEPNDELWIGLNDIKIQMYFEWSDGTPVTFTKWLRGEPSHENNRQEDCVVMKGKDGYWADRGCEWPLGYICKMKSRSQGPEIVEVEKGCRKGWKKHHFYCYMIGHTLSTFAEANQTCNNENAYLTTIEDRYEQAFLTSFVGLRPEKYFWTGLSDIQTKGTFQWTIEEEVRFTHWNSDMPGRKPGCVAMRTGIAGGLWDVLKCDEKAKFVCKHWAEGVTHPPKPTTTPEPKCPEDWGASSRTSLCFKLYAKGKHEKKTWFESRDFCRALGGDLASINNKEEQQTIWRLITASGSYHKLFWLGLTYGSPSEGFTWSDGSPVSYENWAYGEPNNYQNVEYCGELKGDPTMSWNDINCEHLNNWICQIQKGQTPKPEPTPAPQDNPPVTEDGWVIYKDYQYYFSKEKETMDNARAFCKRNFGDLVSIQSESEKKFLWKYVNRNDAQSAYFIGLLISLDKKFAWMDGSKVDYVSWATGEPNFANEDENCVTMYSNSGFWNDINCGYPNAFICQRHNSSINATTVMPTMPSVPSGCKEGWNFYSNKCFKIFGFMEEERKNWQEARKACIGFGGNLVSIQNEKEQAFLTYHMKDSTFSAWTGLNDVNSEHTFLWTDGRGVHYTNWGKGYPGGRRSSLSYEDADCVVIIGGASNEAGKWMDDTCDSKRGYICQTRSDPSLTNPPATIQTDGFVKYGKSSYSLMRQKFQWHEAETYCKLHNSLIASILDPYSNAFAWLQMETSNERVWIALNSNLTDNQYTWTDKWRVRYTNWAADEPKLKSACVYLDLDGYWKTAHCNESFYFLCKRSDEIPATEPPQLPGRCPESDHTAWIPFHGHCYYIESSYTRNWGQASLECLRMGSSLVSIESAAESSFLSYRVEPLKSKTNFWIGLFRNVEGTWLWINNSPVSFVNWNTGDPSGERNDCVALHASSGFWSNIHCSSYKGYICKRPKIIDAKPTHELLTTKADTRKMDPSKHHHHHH
Assay: SPR, BIAcore T100; human MMR on CM5 chip, sdAb as analyte
Experimental: Affinity analysis was performed using a BIAcore™ T100 (GE Healthcare) with HEPES-buffered saline running buffer (10 mM HEPES with 0.15 M NaCl, 3.4 mM EDTA and 0.005% surfactant P20 at pH 7.4). MRR was immobilized on a CM5 chip in acetate buffer 50 mM (pH 5.0), resulting in 2100 RU MMR coated on the chip. […] The kinetic and equilibrium parameters (kd, ka and KD) values were calculated from the combined sensogram of all concentrations using BIAcore™ T100 evaluation software 2.02 (GE Healthcare). […]
pKd: −log10 of the molar value.
Measurement label: pKd

[1] NbhmMMRm17.72 (VHH, Produced from pMECS with C-terminal HA and 6xHis tag) VHH: QVQLQESGGGLVQPGGSLRLSCAASGSIVSINAMGWYRQAPGKQRELVALVTGSGRTNLADSVKGRFTISRDNAKNTVYLQMNSLKPEDTAVYYCNVLVIGPLEGYDYWGQGTQVTVSS
[2] NbhmMMRm19.52 (VHH, Produced from pMECS with C-terminal HA and 6xHis tag) VHH: QVQLQESGGGLVQAGGSLRLSCLASGDTFSNYVMAWFRQAPGKEREIVAAIRLSGARYVPDSVKGRFTISRDNAKNAMYLQMTSLKPEDTARYYCAAGHTWGQYAYWGQGTQVTVSS
Prompt line: // select label with min value of measured pKd from [ 1 , 2 ] When you have decided, please share the label of that item.
Response line: 2
